// cross-source set; read-out = Ki; system = Alpha-1A adrenergic receptor (Rattus norvegicus)
Sequence (P43140 whole entry): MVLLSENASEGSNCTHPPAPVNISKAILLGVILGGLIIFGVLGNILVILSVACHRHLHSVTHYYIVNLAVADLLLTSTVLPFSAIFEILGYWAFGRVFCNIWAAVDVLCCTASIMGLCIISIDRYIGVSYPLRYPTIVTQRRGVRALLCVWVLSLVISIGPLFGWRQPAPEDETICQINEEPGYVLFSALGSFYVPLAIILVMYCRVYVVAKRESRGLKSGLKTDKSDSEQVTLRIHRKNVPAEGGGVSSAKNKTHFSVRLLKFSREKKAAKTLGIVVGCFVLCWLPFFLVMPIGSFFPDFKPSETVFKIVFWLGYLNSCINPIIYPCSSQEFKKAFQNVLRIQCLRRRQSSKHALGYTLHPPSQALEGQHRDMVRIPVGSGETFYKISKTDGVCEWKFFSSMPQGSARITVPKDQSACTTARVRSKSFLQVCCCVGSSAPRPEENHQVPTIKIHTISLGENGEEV
Assign labels as follows, please: satisfied for Ki below 8 nM; not satisfied for Ki equal to or exceeding 8 nM.

• CCS(=O)(=O)Nc1cccc(Sc2c[nH]cn2)c1 = not satisfied
• COc1cc2c(cc1O)[C@@H]1Cc3ccc(O)c(OC)c3CN1CC2 = not satisfied
• COc1cccc2c1CC[C@H]1CN(CCn3c(=O)[nH]c4c(C)csc4c3=O)C[C@@H]21 = satisfied
• COc1ccccc1N1CCN(CCn2c(=O)c3c(-c4ccccc4)csc3n(C)c2=O)CC1 = satisfied
• CCS(=O)(=O)Nc1cccc(-c2c[nH]cn2)c1 = not satisfied
• COc1cc2c(cc1OC)C(=O)N(CCN1C[C@@H]3CCc4c(OC)cccc4[C@@H]3C1)CN2 = not satisfied

Lab note: next compound to report on.
**Query** Just wondering, is Ki of CCS(=O)(=O)Nc1cccc(S(=O)(=O)c2c[nH]cn2)c1 below 8 nM?
**Result** not satisfied
